# testedTarget: human GPR39 receptor (Homo sapiens)
# Construct: PC3 Cells, Expressing the Endogenous Human GPR39 Receptor; endogenous in cells
# Sequence (O43194 whole entry): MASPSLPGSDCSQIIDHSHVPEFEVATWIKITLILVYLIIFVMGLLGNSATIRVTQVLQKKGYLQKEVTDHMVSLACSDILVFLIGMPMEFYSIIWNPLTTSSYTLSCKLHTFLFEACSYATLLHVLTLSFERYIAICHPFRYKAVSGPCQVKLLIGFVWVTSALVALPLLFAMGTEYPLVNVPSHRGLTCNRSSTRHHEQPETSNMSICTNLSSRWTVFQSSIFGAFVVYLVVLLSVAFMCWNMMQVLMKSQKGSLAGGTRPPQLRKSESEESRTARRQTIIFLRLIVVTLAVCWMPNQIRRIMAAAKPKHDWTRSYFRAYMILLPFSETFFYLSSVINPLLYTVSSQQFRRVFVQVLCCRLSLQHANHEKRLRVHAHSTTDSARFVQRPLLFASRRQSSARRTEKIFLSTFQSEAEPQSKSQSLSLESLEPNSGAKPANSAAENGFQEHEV
# testDetails: Measurement of intracellular calcium response in PC3 cells (FLIPR), antagonism of the C3 agonist response
# conditionDetails: functional pKi (modified Cheng-Prusoff), inhibition of the C3 (TC-G 1008) response at EC90, 30 μM ZnCl2, read-out: fpKi activity
propertyName: Ki

Answered examples (5):
In [3]: df
Out[3]:
                                   molecule                         testedtarget          result
0  CN1CCN(C(=O)c2ccc(NC(=O)C3CC3)cc2N2CCC3(COC3)C2)C(c2cccc(Cl)c2)C1 (centres unmarked)  human GPR39 receptor (Homo sapiens)  63.1 to 251 nM
1  Cc1nnc(-c2ccc(C(=O)N3CCC(F)(F)CC3)c(-n3ccc(C(F)(F)F)n3)c2)[nH]1  human GPR39 receptor (Homo sapiens)       ≤ 50.1 nM
2  O=C(Nc1ccc(C(=O)N2CCC3(CC2)COC3)c(N2CCCC2)c1)C1CC1  human GPR39 receptor (Homo sapiens)  63.1 to 251 nM
3  CCCN1CCN(C(=O)c2ccc(NC(=O)C3CC3)cc2NC2CCCC2)CC1  human GPR39 receptor (Homo sapiens)  316 to 1000 nM
4  CCCN1CCN(C(=O)c2ccc(NC(=O)C3CC3)cc2N2CC3CC3C2)CC1 (centres unmarked)  human GPR39 receptor (Homo sapiens)  316 to 1000 nM

Request: # get_value(readout='Ki', item= CN1CCN(C(=O)c2ccc(NC(=O)C3CC3)cc2N2CC3(COC3)C2)C(c2ccccc2)C1 (centres unmarked) )
Response: 316 to 1000 nM

Request: # get_value(readout='Ki', item= CCCN1CCN(C(=O)c2ccc(NC(=O)C3CC3)cc2N2CC[C@@H](C(C)C)C2)CC1 )
Response: ≤ 50.1 nM

Request: # get_value(readout='Ki', item= O=C(Nc1ccc(C(=O)N2CCN(Cc3ccon3)CC2)c(N2CCCCCC2)c1)C1CC1 )
Response: 63.1 to 251 nM
